FYI, the data here is from paper PMC10675340.

protocolSummary: In vivo tumor targeting and biodistribution in nude mice bearing MDA-MB-231 xenografts
Design: species or system mouse
conditionDescription: mouse, liver, total radioactivity; nude mice with MDA-MB-231 xenografts, 2 h p.i., mean ± SD, n = 4-6; read-out: Liver uptake
Where a SMILES comes first, the peptide text is derived from it. [ ]: non-standard residue; d: D form. The star is where a group is joined. DOTA = O=C(O)CN1CCN(CC(=O)O)CCN(CC(=O)*)CCN(CC(=O)O)CC1; βAla = NCCC(=O)O
quantity: tissue uptake at 2 h
Provide the measurement as a number trailed by its unit.

Query string: GET /values?readout=tissue uptake at 2 h&item= CC[C@H](C)[C@H](NC(=O)[C@H](Cc1ccc(O)cc1)NC(=O)[C@@H](NC(=O)[C@H](CCCNC(=N)N)NC(=O)[C@H](CC(=O)O)NC(=O)CCNC(=O)[C@H](CCCCN)NC(=O)CN1CCN(CC(=O)O)CCN(CC(=O)O)CCN(CC(=O)O)CC1)C(C)C)C(=O)N[C@@H](Cc1c[nH]cn1)C(=O)N1CCC[C@H]1C(=O)N[C@@H](Cc1ccccc1)C(=O)N[C@@H](Cc1c[nH]c2ccccc12)C(=O)N[C@@H](CCCCN)C(=O)N[C@@H](Cc1ccc(O)cc1)C(N)=O [^68Ga-DOTA-AngII peptide, metal not drawn] ({DOTA}-K[βAla]DRVYIHPFWKY-NH2)
Result string: 0.65 %ID/g

----------
protocolSummary: In vivo tumor targeting and biodistribution in nude mice bearing MDA-MB-231 xenografts
Parameters: species or system mouse
conditionDescription: mouse, heart, total radioactivity; nude mice with MDA-MB-231 xenografts, 45 min p.i., mean ± SD, n = 4-6; read-out: Heart uptake
Where a SMILES comes first, the peptide text is derived from it. [ ]: non-standard residue; d: D form. The star is where a group is joined. DOTA = O=C(O)CN1CCN(CC(=O)O)CCN(CC(=O)*)CCN(CC(=O)O)CC1; βAla = NCCC(=O)O
quantity: tissue uptake at 0.75 h (%ID/g)
Use %ID/g as the unit, but write only the number.

Query string: Could you share which tissue uptake at 0.75 h value was measured for CC[C@H](C)[C@H](NC(=O)[C@H](Cc1ccc(O)cc1)NC(=O)[C@@H](NC(=O)[C@H](CCCNC(=N)N)NC(=O)[C@H](CC(=O)O)NC(=O)CCNC(=O)[C@H](CCCCN)NC(=O)CN1CCN(CC(=O)O)CCN(CC(=O)O)CCN(CC(=O)O)CC1)C(C)C)C(=O)N[C@@H](Cc1c[nH]cn1)C(=O)N1CCC[C@H]1C(=O)N[C@@H](Cc1ccccc1)C(=O)N[C@@H](Cc1c[nH]c2ccccc12)C(=O)N[C@@H](CCCCN)C(=O)N[C@@H](Cc1ccc(O)cc1)C(N)=O [^68Ga-DOTA-AngII peptide, metal not drawn] ({DOTA}-K[βAla]DRVYIHPFWKY-NH2) ?
Result string: 0.88

----------
protocolSummary: In vivo receptor-blocking study in nude mice bearing MDA-MB-231 xenografts
conditionDescription: mouse, pancreas, total radioactivity; nude mice with MDA-MB-231 xenografts, 2 h p.i., co-injected ~100 µg unlabeled AngII peptide analog, mean ± SD; read-out: Pancreas uptake, blocked
Where a SMILES comes first, the peptide text is derived from it. [ ]: non-standard residue; d: D form. The star is where a group is joined. DOTA = O=C(O)CN1CCN(CC(=O)O)CCN(CC(=O)*)CCN(CC(=O)O)CC1; βAla = NCCC(=O)O
quantity: tissue uptake at 2 h (%ID/g)
The answer is to be given in %ID/g; state only the numeric part.

Query string: Please report the recorded tissue uptake at 2 h for CC[C@H](C)[C@H](NC(=O)[C@H](Cc1ccc(O)cc1)NC(=O)[C@@H](NC(=O)[C@H](CCCNC(=N)N)NC(=O)[C@H](CC(=O)O)NC(=O)CCNC(=O)[C@H](CCCCN)NC(=O)CN1CCN(CC(=O)O)CCN(CC(=O)O)CCN(CC(=O)O)CC1)C(C)C)C(=O)N[C@@H](Cc1c[nH]cn1)C(=O)N1CCC[C@H]1C(=O)N[C@@H](Cc1ccccc1)C(=O)N[C@@H](Cc1c[nH]c2ccccc12)C(=O)N[C@@H](CCCCN)C(=O)N[C@@H](Cc1ccc(O)cc1)C(N)=O [^68Ga-DOTA-AngII peptide, metal not drawn] ({DOTA}-K[βAla]DRVYIHPFWKY-NH2) .
Result string: 0.54

----------
protocolSummary: In vivo tumor targeting and biodistribution in nude mice bearing MDA-MB-231 xenografts
Set-up: species or system mouse
conditionDescription: mouse, tumor/blood, total radioactivity; nude mice with MDA-MB-231 xenografts, 2 h p.i.; read-out: Tumor/blood uptake ratio
Where a SMILES comes first, the peptide text is derived from it. [ ]: non-standard residue; d: D form. The star is where a group is joined. DOTA = O=C(O)CN1CCN(CC(=O)O)CCN(CC(=O)*)CCN(CC(=O)O)CC1; βAla = NCCC(=O)O
quantity: tissue to tissue ratio at 2 h

Query string: Quick check: tissue to tissue ratio at 2 h of CC[C@H](C)[C@H](NC(=O)[C@H](Cc1ccc(O)cc1)NC(=O)[C@@H](NC(=O)[C@H](CCCNC(=N)N)NC(=O)[C@H](CC(=O)O)NC(=O)CCNC(=O)[C@H](CCCCN)NC(=O)CN1CCN(CC(=O)O)CCN(CC(=O)O)CCN(CC(=O)O)CC1)C(C)C)C(=O)N[C@@H](Cc1c[nH]cn1)C(=O)N1CCC[C@H]1C(=O)N[C@@H](Cc1ccccc1)C(=O)N[C@@H](Cc1c[nH]c2ccccc12)C(=O)N[C@@H](CCCCN)C(=O)N[C@@H](Cc1ccc(O)cc1)C(N)=O [^68Ga-DOTA-AngII peptide, metal not drawn] ({DOTA}-K[βAla]DRVYIHPFWKY-NH2) ?
Result string: 5.68

----------
protocolSummary: In vivo tumor targeting and biodistribution in nude mice bearing MDA-MB-231 xenografts
Parameters: species or system mouse
conditionDescription: mouse, stomach, total radioactivity; nude mice with MDA-MB-231 xenografts, 45 min p.i., mean ± SD, n = 4-6; read-out: Stomach uptake
Method: (with 43% wash away from the tumors over 2 h). The amount of radioactivity found for the ^68Ga-labeled AngII peptide analog in the tumors was always more than the radioactivity detected in the blood and muscle. […] In vivo, tumor uptake was conducted as reported previously. […] The percent of the injected dose per gram in the tumors was determined by using a custom-designed Quattro Pro X9 spreadsheet (Corel Corporation, Austin, TX, USA).
Where a SMILES comes first, the peptide text is derived from it. [ ]: non-standard residue; d: D form. The star is where a group is joined. DOTA = O=C(O)CN1CCN(CC(=O)O)CCN(CC(=O)*)CCN(CC(=O)O)CC1; βAla = NCCC(=O)O
quantity: tissue uptake at 0.75 h (%ID/g)
Write the number in %ID/g without appending the unit.

Query string: Quick check: tissue uptake at 0.75 h of CC[C@H](C)[C@H](NC(=O)[C@H](Cc1ccc(O)cc1)NC(=O)[C@@H](NC(=O)[C@H](CCCNC(=N)N)NC(=O)[C@H](CC(=O)O)NC(=O)CCNC(=O)[C@H](CCCCN)NC(=O)CN1CCN(CC(=O)O)CCN(CC(=O)O)CCN(CC(=O)O)CC1)C(C)C)C(=O)N[C@@H](Cc1c[nH]cn1)C(=O)N1CCC[C@H]1C(=O)N[C@@H](Cc1ccccc1)C(=O)N[C@@H](Cc1c[nH]c2ccccc12)C(=O)N[C@@H](CCCCN)C(=O)N[C@@H](Cc1ccc(O)cc1)C(N)=O [^68Ga-DOTA-AngII peptide, metal not drawn] ({DOTA}-K[βAla]DRVYIHPFWKY-NH2) ?
Result string: 0.34

----------
protocolSummary: In vivo biodistribution in normal Balb/c mice
Set-up: species or system mouse
conditionDescription: female, mouse, pancreas, iv, total radioactivity; normal Balb/c mice, 2 h p.i., i.v. tail vein, mean ± SD, n = 4-6; read-out: Pancreas uptake
Method: The in vivo biodistribution of ^68Ga-labeled AngII peptide analog was carried out in female Balb/c mice, at various time points, to observe the uptake in the normal tissues and organs and find the excretion route of the radiolabeled peptides. […] Approval from the Institutional Animal Care and Use Committee was obtained for the animal protocol used. […] Urine was also collected and measured with the bladder contents. […]
Where a SMILES comes first, the peptide text is derived from it. [ ]: non-standard residue; d: D form. The star is where a group is joined. DOTA = O=C(O)CN1CCN(CC(=O)O)CCN(CC(=O)*)CCN(CC(=O)O)CC1; βAla = NCCC(=O)O
quantity: tissue uptake at 2 h (%ID/g)
Number in %ID/g, nothing else.

Query string: For CC[C@H](C)[C@H](NC(=O)[C@H](Cc1ccc(O)cc1)NC(=O)[C@@H](NC(=O)[C@H](CCCNC(=N)N)NC(=O)[C@H](CC(=O)O)NC(=O)CCNC(=O)[C@H](CCCCN)NC(=O)CN1CCN(CC(=O)O)CCN(CC(=O)O)CCN(CC(=O)O)CC1)C(C)C)C(=O)N[C@@H](Cc1c[nH]cn1)C(=O)N1CCC[C@H]1C(=O)N[C@@H](Cc1ccccc1)C(=O)N[C@@H](Cc1c[nH]c2ccccc12)C(=O)N[C@@H](CCCCN)C(=O)N[C@@H](Cc1ccc(O)cc1)C(N)=O [^68Ga-DOTA-AngII peptide, metal not drawn] ({DOTA}-K[βAla]DRVYIHPFWKY-NH2) , what is its reported tissue uptake at 2 h?
Result string: 0.33
